Measured IC50, RGA 1 by item
test_target: T1, murine IL-11 (mouse, UniProt P47873 22-199)
T1 sequence: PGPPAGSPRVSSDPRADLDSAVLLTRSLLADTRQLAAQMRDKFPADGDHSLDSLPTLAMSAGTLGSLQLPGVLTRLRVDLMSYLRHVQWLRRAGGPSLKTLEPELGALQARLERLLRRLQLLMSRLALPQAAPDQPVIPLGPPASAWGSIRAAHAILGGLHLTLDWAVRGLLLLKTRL
measurement_description: cell-based or functional assay
Only the number, expressed in nM, is required.

>  <binder>
TPP-31278 (antibody, IgG4, V domains shown, hIgG4 SPLE, lambda) VH: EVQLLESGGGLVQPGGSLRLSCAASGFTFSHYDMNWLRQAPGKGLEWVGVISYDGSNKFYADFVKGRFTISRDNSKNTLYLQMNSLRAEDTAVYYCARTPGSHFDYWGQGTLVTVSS VL: QSVLTQPPSASGTPGQRVTISCSGSSSNIGNNYVNWYQQLPGTAPKLLIYYDDLLPSGVPDRFSGSKSGTSASLAISGLRSEDEADYYCSAWDDSLNGVVFGGGTKLTVL

>  <IC50, RGA 1 / nM>
0.13

$$$$

Ask: Field request: IC50, RGA 1 | item: TPP-31285 (antibody, IgG4, V domains shown, hIgG4 SPLE, lambda) VH: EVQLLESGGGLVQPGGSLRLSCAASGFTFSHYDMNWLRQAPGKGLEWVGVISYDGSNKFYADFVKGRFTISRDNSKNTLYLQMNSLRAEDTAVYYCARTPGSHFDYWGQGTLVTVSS VL: QSVLTQPPSASGTPGQRVTISCSGSSSNIGNNAVNWYQQLPGTAPKLLIYYDDLLPSGVPDRFSGSKSGTSASLAISGLRSEDEADYYCAAWDDSLNGVVFGGGTKLTVL
Reply: 111

Ask: Field request: IC50, RGA 1 | item: TPP-31311 (antibody, IgG4, V domains shown) VH: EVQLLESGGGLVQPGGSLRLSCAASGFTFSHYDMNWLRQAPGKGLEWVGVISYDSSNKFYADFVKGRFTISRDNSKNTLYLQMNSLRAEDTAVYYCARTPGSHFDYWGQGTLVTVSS VL: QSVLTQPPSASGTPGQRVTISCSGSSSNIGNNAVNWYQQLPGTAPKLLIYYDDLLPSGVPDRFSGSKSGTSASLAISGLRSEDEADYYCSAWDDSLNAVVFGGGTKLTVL
Reply: 76

Reference source for all entries: patent US20240317847A1
